Molecular target: UniProt P05067
Test: Inhibition of self-induced amyloid beta (1 to 42) (unknown origin) aggregation measured after 24 hrs by ThT fluorescence assay relative to control
Settings: concentration not given here
Result Type: inhibition
Please state the value followed by its unit.

In plain terms, Cc1c(OCc2ccccc2)c(=O)ccn1-c1ccc(CC(=O)NCc2ccc(-c3nc4ccccc4s3)cc2)cc1 has a documented inhibition of 68.9%

In plain terms, Cc1c(O)c(=O)ccn1CC(=O)NCC(O)CNc1c2c(nc3ccccc13)CCCC2 (centres undefined) has a documented inhibition of 86%

In plain terms, Cc1c(O)c(=O)ccn1CCCC(=O)N1CCCC1c1nc2ccccc2s1 (centres undefined) has a documented inhibition of 59.3%

In plain terms, Cc1c(O)c(=O)ccn1CC(=O)NCCCNc1c2c(nc3cc(Cl)ccc13)CCCC2 has a documented inhibition of 95.2%

----------
Test: Half life in Sprague-Dawley rat plasma at 5 mg/kg, ip measured after 10 to 180 mins by HPLC-MS analysis
Assay type: ADME, organism-based
Conditions: time 10-180 min
Result Type: half-life (h)
Quick reminder: number only, in h, skip the unit.

In plain terms, C#CCN(C)CCCn1ccc(=O)c(O)c1C has a documented half-life of 1.6

----------
Target: Amyloid-beta precursor protein (Homo sapiens, UniProt P05067)
Sequence (P05067 whole entry): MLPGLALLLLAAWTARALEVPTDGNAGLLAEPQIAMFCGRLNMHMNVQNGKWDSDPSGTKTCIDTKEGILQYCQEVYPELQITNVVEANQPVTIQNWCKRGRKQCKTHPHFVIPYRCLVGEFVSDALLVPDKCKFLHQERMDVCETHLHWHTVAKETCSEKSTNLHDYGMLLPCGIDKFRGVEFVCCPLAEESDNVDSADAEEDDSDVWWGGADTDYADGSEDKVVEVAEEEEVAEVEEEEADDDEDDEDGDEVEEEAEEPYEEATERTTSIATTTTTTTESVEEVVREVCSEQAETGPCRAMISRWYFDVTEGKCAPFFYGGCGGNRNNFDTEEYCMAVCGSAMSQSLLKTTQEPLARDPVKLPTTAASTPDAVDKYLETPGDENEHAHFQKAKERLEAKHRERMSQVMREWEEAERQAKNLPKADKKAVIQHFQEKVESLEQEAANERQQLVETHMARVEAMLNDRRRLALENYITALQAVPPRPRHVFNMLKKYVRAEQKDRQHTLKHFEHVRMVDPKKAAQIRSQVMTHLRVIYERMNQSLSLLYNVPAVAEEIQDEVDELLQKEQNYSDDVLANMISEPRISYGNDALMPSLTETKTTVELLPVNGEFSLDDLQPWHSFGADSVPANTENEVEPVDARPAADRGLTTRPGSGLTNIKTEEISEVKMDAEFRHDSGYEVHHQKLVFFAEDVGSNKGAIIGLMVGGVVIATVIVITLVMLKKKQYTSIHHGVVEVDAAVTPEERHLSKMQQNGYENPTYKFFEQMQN
Assay: Inhibition of self-induced amyloid beta (1 to 42) (unknown origin) aggregation incubated for 24 hrs by ThT fluorescence assay
Result Type: IC50 (nM)
Quick reminder: number only, in nM, skip the unit.

In plain terms, C#CCN(C)CCCn1ccc(=O)c(O)c1C has a documented IC50 of 2850

----------
Tested on: Pseudomonas aeruginosa
Test: Antibacterial activity against Pseudomonas aeruginosa incubated for 2 hrs followed by sterilized TSB addition and measured after 24 hrs by visual inspection
Format: functional
Settings: time 26 hrs
Result Type: MIC (µg/mL)
Quick reminder: number only, in µg/mL, skip the unit.

In plain terms, CCCC(=O)NC(CCCNC(=O)c1c(O)c(=O)ccn1CCO)(CCCNC(=O)c1c(O)c(=O)ccn1CCO)CCCNC(=O)c1c(O)c(=O)ccn1CCO has a documented MIC of 16

In plain terms, COCCn1ccc(=O)c(O)c1C(=O)NCCCC(CCCNC(=O)c1c(O)c(=O)ccn1CCOC)(CCCNC(=O)c1c(O)c(=O)ccn1CCOC)NC(=O)[C@@H](N)CC(C)C has a documented MIC of 128

In plain terms, CCCC(=O)NC(CCCNC(=O)c1c(O)c(=O)ccn1C)(CCCNC(=O)c1c(O)c(=O)ccn1C)CCCNC(=O)c1c(O)c(=O)ccn1C has a documented MIC of 16

In plain terms, CCCCn1ccc(=O)c(O)c1C(=O)NCCCC(CCCNC(=O)c1c(O)c(=O)ccn1CCCC)(CCCNC(=O)c1c(O)c(=O)ccn1CCCC)NC(=O)CCC has a documented MIC of 32

In plain terms, CCn1ccc(=O)c(O)c1C(=O)NCCCC(CCCNC(=O)c1c(O)c(=O)ccn1CC)(CCCNC(=O)c1c(O)c(=O)ccn1CC)NC(=O)[C@@H](N)CC(C)C has a documented MIC of 32

In plain terms, CCCCCCn1ccc(=O)c(O)c1C(=O)NCCCC(CCCNC(=O)c1c(O)c(=O)ccn1CCCCCC)(CCCNC(=O)c1c(O)c(=O)ccn1CCCCCC)NC(=O)CCC has a documented MIC of 32

----------
Assay: Cmax in Sprague-Dawley rat brain at 5 mg/kg, ip measured up to 30 mins by HPLC-MS analysis
Assay type: ADME, organism-based
Set-up: route intraperitoneal, dose 5 mg/kg, time <=30
Result Type: Cmax (ng/mL)
Quick reminder: number only, in ng/mL, skip the unit.

In plain terms, C#CCN(C)CCCn1ccc(=O)c(O)c1C has a documented Cmax of 207

----------
Exercise: state measured pIC50 for each of the compounds provided.
Biological target: Acetylcholinesterase (Electrophorus electricus)
Assay: Inhibition of electric eel AChE using acetylthiocholine iodide as substrate preincubated for 15 mins followed by substrate addition and measured for 5 mins by Ellman's method
# log scale: pIC50 equals minus log10 of the concentration in mol/L

In plain terms, Cc1c(O)c(=O)ccn1CC(=O)NCC(O)CNc1c2c(nc3ccccc13)CCCC2 (stereo unspecified) has a documented pIC50 of 6.02

In plain terms, Cc1c(O)c(=O)ccn1CC(=O)NCCCNc1c2c(nc3ccccc13)CCCC2 has a documented pIC50 of 6.19

In plain terms, Cc1c(O)c(=O)ccn1CC(=O)NCCNc1c2c(nc3cc(Cl)ccc13)CCCC2 has a documented pIC50 of 6.19

In plain terms, Cc1c(O)c(=O)ccn1CC(=O)NCC(O)CNc1c2c(nc3cc(Cl)ccc13)CCCC2 (stereo unspecified) has a documented pIC50 of 6.19

In plain terms, Cc1c(O)c(=O)ccn1CC(=O)NCCCNc1c2c(nc3cc(Cl)ccc13)CCCC2 has a documented pIC50 of 6.07

In plain terms, Cc1c(O)c(=O)ccn1CC(=O)NCCCCNc1c2c(nc3cc(Cl)ccc13)CCCC2 has a documented pIC50 of 6.19

----------
Tested on: Pseudomonas aeruginosa
Assay: Antibacterial activity against Pseudomonas aeruginosa incubated for 2 hrs followed by sterilized TSB addition and measured after 24 hrs by visual inspection
Assay type: functional
Conditions: time 26 hrs
Exercise: state measured MIC for each of the compounds provided.
Quick reminder: number only, in µg/mL, skip the unit.

In plain terms, CCCC(=O)NC(CCCNC(=O)c1c(O)c(=O)ccn1CCOC)(CCCNC(=O)c1c(O)c(=O)ccn1CCOC)CCCNC(=O)c1c(O)c(=O)ccn1CCOC has a documented MIC of 32

In plain terms, CCCC(=O)NC(CCCNC(=O)c1c(O)c(=O)ccn1CC)(CCCNC(=O)c1c(O)c(=O)ccn1CC)CCCNC(=O)c1c(O)c(=O)ccn1CC has a documented MIC of 32

In plain terms, CCCCn1ccc(=O)c(O)c1C(=O)NCCCC(CCCNC(=O)c1c(O)c(=O)ccn1CCCC)(CCCNC(=O)c1c(O)c(=O)ccn1CCCC)NC(=O)[C@@H](N)CC(C)C has a documented MIC of 32

----------
Test: Partition coefficient, log P of the compound
Format: physicochemical
Conditions: octanol/water
Result Type: logP
Write the number on its own, no unit after it.

In plain terms, Cc1c(O)c(=O)ccn1CCN1CCCCC1 has a documented logP of 0.96

----------
Assay: AUC (0 to infinity) in Sprague-Dawley rat plasma at 5 mg/kg, ip measured after 10 to 180 mins by HPLC-MS analysis
Assay type: ADME, organism-based
Design: route intraperitoneal, time lower 10 min, dose 5 mg/kg, time upper 180 min
Result Type: AUC(0-inf) (ng·h/mL)
Quick reminder: number only, in ng·h/mL, skip the unit.

In plain terms, C#CCN(C)CCCn1ccc(=O)c(O)c1C has a documented AUC(0-inf) of 636

----------
Exercise: state measured pIC50 for each of the compounds provided.
Tested on: Plasmodium falciparum
Test: Antiplasmodial activity against chloroquine-sensitive Plasmodium falciparum D10 incubated for 48 hrs by parasite lactate dehydrogenase assay
Type: functional, organism-based
Conditions: D10, 48 h
# log scale: pIC50 equals minus log10 of the concentration in mol/L

In plain terms, CCc1c(OCc2ccccc2)c(=O)ccn1CCCCCCNc1ccnc2cc(Cl)ccc12 has a documented pIC50 of 6.91

In plain terms, O=c1cc(CNCCCCCCNc2ccnc3cc(Cl)ccc23)n(C2CC2)cc1OCc1ccccc1 has a documented pIC50 of 7.33

----------
Target: Acetylcholinesterase (Electrophorus electricus, UniProt O42275)
Sequence (O42275 whole entry): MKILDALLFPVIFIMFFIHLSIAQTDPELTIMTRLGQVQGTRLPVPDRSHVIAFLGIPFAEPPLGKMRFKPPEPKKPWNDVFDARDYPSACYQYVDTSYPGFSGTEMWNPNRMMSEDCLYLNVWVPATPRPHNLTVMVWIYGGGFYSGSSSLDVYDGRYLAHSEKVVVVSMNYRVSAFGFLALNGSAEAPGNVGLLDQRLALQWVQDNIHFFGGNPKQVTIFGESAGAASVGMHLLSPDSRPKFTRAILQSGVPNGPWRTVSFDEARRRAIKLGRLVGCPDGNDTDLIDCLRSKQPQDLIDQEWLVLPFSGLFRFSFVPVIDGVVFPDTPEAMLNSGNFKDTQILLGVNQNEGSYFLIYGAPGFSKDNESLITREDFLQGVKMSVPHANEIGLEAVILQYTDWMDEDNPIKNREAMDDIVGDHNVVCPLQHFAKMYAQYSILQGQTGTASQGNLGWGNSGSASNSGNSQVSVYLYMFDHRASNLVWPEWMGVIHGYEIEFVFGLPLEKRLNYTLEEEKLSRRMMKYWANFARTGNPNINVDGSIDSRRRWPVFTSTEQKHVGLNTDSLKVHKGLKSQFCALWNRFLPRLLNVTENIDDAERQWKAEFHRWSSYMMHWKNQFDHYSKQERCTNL
Assay: Inhibition of electric eel AChE using acetylthiocholine iodide as substrate preincubated for 15 mins followed by substrate addition and measured for 5 mins by Ellman's reagent based UV-Vis spectrophotometric method
Result Type: IC50 (µM)
Quick reminder: number only, in µM, skip the unit.

Form field, IC50 with Acetylcholinesterase (Electrophorus electricus, UniProt O42275), item Cc1c(OCc2ccccc2)c(=O)ccn1-c1ccc(CC(=O)NCc2ccc(-c3nc4ccccc4s3)cc2)cc1 : 13.8

Form field, IC50 with Acetylcholinesterase (Electrophorus electricus, UniProt O42275), item Cc1c(O)c(=O)ccn1CCCC(=O)N1CCCC1c1nc2ccccc2s1 (configuration not stated) : 14.7

----------
Experiment: Ratio of drug level in Sprague-Dawley rat brain to plasma at 5 mg/kg, ip measured after 10 to 180 mins by HPLC-MS analysis
Format: ADME, organism-based
Conditions: brain and plasma, time 10-180 min, read-out: BPR
Result Type: Kp
Write the number on its own, no unit after it.

In plain terms, C#CCN(C)CCCn1ccc(=O)c(O)c1C has a documented Kp of 0.69

----------
Experiment: Octanol-buffer partition coefficient, logP of the compound at pH 7.4 by shake flask method
Format: physicochemical
Result Type: logD

In plain terms, CC(=O)NCCOCCOCCn1ccc(=O)c(O)c1C has a documented logD of -2.01

----------
Exercise: state measured IC50 for each of the compounds provided.
Target: Acetylcholinesterase (Torpedo californica)
Sequence (P04058 whole entry): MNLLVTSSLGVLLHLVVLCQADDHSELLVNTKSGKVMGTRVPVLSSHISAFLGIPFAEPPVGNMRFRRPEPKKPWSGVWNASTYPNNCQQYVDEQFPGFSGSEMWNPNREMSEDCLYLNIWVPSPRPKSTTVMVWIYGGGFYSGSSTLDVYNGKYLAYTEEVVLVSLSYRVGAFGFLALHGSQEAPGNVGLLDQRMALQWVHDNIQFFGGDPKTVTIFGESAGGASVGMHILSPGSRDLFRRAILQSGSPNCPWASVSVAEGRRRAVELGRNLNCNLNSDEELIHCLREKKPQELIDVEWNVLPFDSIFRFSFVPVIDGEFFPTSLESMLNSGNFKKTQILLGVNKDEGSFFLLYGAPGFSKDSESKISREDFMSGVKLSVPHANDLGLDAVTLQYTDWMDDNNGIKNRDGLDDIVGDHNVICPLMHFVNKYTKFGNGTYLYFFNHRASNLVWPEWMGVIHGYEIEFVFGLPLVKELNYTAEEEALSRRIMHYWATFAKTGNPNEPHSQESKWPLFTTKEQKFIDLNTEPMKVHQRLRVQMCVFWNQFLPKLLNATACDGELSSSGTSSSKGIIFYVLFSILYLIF
Quick reminder: number only, in µM, skip the unit.

In plain terms, COc1cccc2cc(C(=O)NCCn3ccc(=O)c(OCc4ccccc4)c3C)oc12 has a documented IC50 of 76

In plain terms, COc1cccc2cc(C(=O)NCCn3ccc(=O)c(O)c3C)oc12 has a documented IC50 of 246
